Origin of measurements: ChEMBL document CHEMBL1128698

# System: CCRF-CEM
# test-protocol: Growth inhibition against Human leukemic cell line (Methotrexate resistant CCRF-CEM)
# Format: functional, cell-based
measurement-name: pEC50
pEC50 is a log-scale quantity: -log10 of the concentration expressed in molar.

Ask: Output pEC50 of CC1=C(Sc2ccc(C(=O)NC(CCC(=O)O)C(=O)O)cc2)C2C(=O)NC(N)=NC2N1 (stereo unspecified)
Result: 6.09

----------
Some compounds, each annotated with its measured IC50.
# target-or-test-system: UniProt:P00374
# Sequence (P00374 whole entry): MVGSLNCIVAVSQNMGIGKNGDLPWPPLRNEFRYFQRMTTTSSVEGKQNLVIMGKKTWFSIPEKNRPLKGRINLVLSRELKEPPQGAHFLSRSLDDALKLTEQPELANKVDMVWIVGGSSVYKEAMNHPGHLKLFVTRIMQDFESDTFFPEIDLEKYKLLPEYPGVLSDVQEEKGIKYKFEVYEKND
# test-protocol: Inhibitory activity against dihydro folate reductase from human recombinant sources

- compound: "CC1=C(Sc2ccc(C(=O)NC(CCC(=O)O)C(=O)O)cc2)C2C(=O)NC(N)=NC2N1 (configuration not stated)"
  observed-value: "2.2 µM"

Lab note: next compound to report on.
Ask: In one line, give reported IC50 of the entry CC1=C(Sc2ccncc2)C2C(=O)NC(N)=NC2N1 (configuration not stated) .
Result: > 69 µM

----------
# target-or-test-system: Thymidylate synthase (Homo sapiens)
# Sequence (P04818 whole entry): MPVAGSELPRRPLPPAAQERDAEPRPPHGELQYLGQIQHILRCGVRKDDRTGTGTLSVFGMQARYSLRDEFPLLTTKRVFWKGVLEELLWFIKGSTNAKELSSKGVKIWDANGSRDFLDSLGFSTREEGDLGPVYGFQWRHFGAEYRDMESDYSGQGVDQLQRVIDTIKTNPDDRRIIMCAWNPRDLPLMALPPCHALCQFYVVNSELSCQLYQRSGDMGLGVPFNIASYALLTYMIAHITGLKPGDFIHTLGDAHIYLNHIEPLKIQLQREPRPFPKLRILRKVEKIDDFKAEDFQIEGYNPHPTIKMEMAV
# test-protocol: Inhibitory activity against thymidylate Synthase from human recombinant sources
measurement-name: pIC50
Notebook: values listed as pIC50 are -log10 of the concentration (mol/L).

Ask: Report pIC50 for CC1=C(Sc2ccncc2)C2C(=O)NC(N)=NC2N1 (stereo unspecified)
Result: 6.47
